- procedure.summary: Clearance in rat at […], iv
- Type: ADME, organism-based
- Set-up: dose 0.58 mg/kg, route intravenous
- condition.description: in vivo
measured.property: clearance (L/h/kg)
Give the value, in units of L/h/kg, as a plain number.

query: Consider the molecule CC(C)(C)c1ccc(Nc2nc3ccc(C#N)cc3[nH]2)cc1 and give its recorded clearance.
result: 6.48
